- Test system: human A1AR
- assayText: Radioligand binding assay, displacement of [3H]DPCPX
- runParameters: A1AR versus A2AAR, from Ki values
attributeMeasured: A1AR selectivity index

>  <compoundStructureString>
CCC(CC)C(=O)Nc1nc2ccccc2s1

>  <A1AR selectivity index>
2.8

$$$$

A: CC(C)(C)C(=O)Nc1nc2cc(C#N)ccc2s1
B: CC(C)(C)C(=O)Nc1nc2ccccc2s1
C: CCC(=O)Nc1nc2ccccc2s1
D: Cc1ccc2sc(NC(=O)C3(C)CCCC3)nc2c1
Reorder the items by A1AR selectivity index, least to greatest. List labels; respect the requested ordering.
C, B, D, A
(C: 1.8, B: 5.0, D: 9.8, A: 25.2)

a: O=C(Nc1nc2ccccc2s1)C1CCCCC1
b: CC(C)(C)C(=O)Nc1nc2cc(Cl)ccc2s1
// compare: a vs b , metric A1AR selectivity index, want the smaller Kindly state the label of the option you pick.
a

A: COc1cccc2sc(NC(=O)c3ccccc3)nc12
B: COc1ccc2sc(NC(=O)C(C)(C)C)nc2c1
Which entry shows the lesser value of A1AR selectivity index here, A or B ? Mark your selection by writing its label.
A

P: CCc1ccc2sc(NC(=O)C3(C)CCCC3)nc2c1
Q: CC1(C(=O)Nc2nc3cc(Cl)ccc3s2)CCCC1
Kindly compare P with Q and tell me which has the lower A1AR selectivity index figure. Answer with the label corresponding to your selection.
Q
(Q: 11.0, P: 22.4)

A: CC(C)(C)C(=O)Nc1nc2cc(Br)ccc2s1
B: CC1(C(=O)Nc2nc3cc(Br)ccc3s2)CCCC1
Between A and B , which one shows the smaller A1AR selectivity index number? Which one? Tell me its label.
A

I: O=C(Nc1nc2ccccc2s1)C12CC3CC(CC1C3)C2
II: CC1(C(=O)Nc2nc3cc(C#N)ccc3s2)CCCC1
III: O=C(Nc1nc2ccccc2s1)C1CCCC1
Please rank these compounds by A1AR selectivity index in descending order. Answer format: list of labels, ordered as asked.
II, I, III
(II: 27.8, I: 4.0, III: 2.6)

A: COc1cccc2sc(NC(=O)C(C)(C)C)nc12
B: CCc1ccc2sc(NC(=O)C(C)(C)C)nc2c1
Looking at A and B , which one comes out lower in A1AR selectivity index terms? Give the chosen item's label as your response.
A

1: Cc1cccc2sc(NC(=O)C(C)(C)C)nc12
2: Cc1ccc2sc(NC(=O)C(C)(C)C)nc2c1
Which entry has a larger number for A1AR selectivity index, 1 or 2 ? Answer by stating the label of the chosen item.
2

A: O=C(Nc1nc2ccccc2s1)c1ccccc1
B: O=C(Nc1nc2ccccc2s1)C1CC1
Problem: Given the entries A and B , determine which has the lower reported A1AR selectivity index. Indicate your choice by writing its label.
A
(A: 0.6, B: 1.4)

====

- targetOfAssay: human A1AR (Homo sapiens, UniProt P30542)
- Construct: expressed in transfected cells; host or cells: HEK293 (membrane preparations)
- Sequence (P30542 whole entry): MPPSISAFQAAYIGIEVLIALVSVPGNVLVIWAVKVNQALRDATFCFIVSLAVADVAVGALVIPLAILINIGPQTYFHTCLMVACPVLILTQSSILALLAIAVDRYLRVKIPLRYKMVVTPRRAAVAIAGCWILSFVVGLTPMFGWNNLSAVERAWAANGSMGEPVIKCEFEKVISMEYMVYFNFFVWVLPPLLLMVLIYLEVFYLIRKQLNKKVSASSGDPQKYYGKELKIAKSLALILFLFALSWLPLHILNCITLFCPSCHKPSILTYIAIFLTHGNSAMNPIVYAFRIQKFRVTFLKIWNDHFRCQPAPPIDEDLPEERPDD
- assayText: Radioligand binding assay, displacement of [3H]DPCPX
- runParameters: displacement of [3H]DPCPX; means ± SEM from 2-4 independent experiments
- Protocol: Radioligand binding assays. HEK293 cells expressing the human A1- or A2AARs were cultured in DMEM supplemented with 10% fetal bovine serum, 100 Units/ml penicillin, 100 µg/ml streptomycin, and 2 µmol/ml glutamine. […] The suspension was then re-centrifuged at 20,000 g for 60 min at 4 °C. […] Nonspecific binding was determined using 100 µM of XAC. […] a K values are expressed as means ± SEM from (2-4) independent experiments. […]
pKi: −log10 of the molar value.
attributeMeasured: pKi

>  <compoundStructureString>
Cc1ccc2sc(NC(=O)C(C)(C)C)nc2c1

>  <number>
7.12

$$$$
>  <compoundStructureString>
COc1cccc2sc(NC(=O)C(C)(C)C)nc12

>  <number>
6.88

$$$$
>  <compoundStructureString>
CCc1ccc2sc(NC(=O)C3(C)CCCC3)nc2c1

>  <number>
7.02

$$$$

A: CC(C)(C)C(=O)Nc1nc2cc(Cl)ccc2s1
B: CC(C)(C)C(=O)Nc1nc2cc(C#N)ccc2s1
Sorting by pKi in descending order, would A or B appear first? Kindly give the label for the entry you pick.
A

I: O=C(Nc1nc2ccccc2s1)C12CC3CC(CC1C3)C2
II: CC1(C(=O)Nc2nc3cc(Cl)ccc3s2)CCCC1
Pick one: I or II . Which has the bigger pKi number? Kindly state the label of the option you pick.
II
